Provide the reported TGI of each item.
Tested on: HOP-62 NSCLC
Experiment: NCI tumour cell line growth inhibition, 48 h

The measured TGI associated with `COc1ccc(/C(=C/c2ccc3ccccc3c2)c2nn[nH]n2)cc1OC` reads > 100 µM

The measured TGI associated with `O=C(CN1CCN(CCN2C(=O)c3cccc4cccc(c34)C2=O)CC1)Nc1ccc2ncsc2c1` reads 23.4 µM

The measured TGI associated with `CC(C)C(=O)Nc1ccc(-c2nc(-c3cccc(OCCN4CCOCC4)c3)c(-c3ccnc(Br)c3)[nH]2)cc1` reads 14.5 µM

The measured TGI associated with `CCCC(=O)N(C)N=Nc1ccc(C(=O)OCC)cc1` reads > 100 µM

The measured TGI associated with CC1NC(C(=O)O)Cc2cc(O)c(O)cc21 (stereo unspecified) reads > 100 µM

The measured TGI associated with `O=C(O)c1ccc(NCc2nc3ccccc3[nH]2)cc1` reads > 100 µM

The measured TGI associated with `CC(=O)NNc1nc(C)c(C(/C=C/c2ccc(Cl)cc2)=N\N=C(N)N)s1` reads > 100 µM

The measured TGI associated with `O=C(/C=C\c1ccsc1)c1ccccc1` reads 30.7 µM

The measured TGI associated with COC(O)C(=O)c1c2c(cc3c1CCC3)CCC2 (stereo unspecified) reads > 100 µM

The measured TGI associated with `CN1C(=O)/C(=C2\S/C(=N\c3nnc(-c4ccccc4)o3)NC2=O)c2ccccc21` reads > 100 µM

The measured TGI associated with OCC1C2CCC3(OCCO3)C12 (stereo unspecified) reads > 100 µM

---

Provide the reported TGI of each item.
System: OVCAR-4 ovarian
Assay: NCI tumour cell line growth inhibition, 48 h

The measured TGI associated with `Cc1cncc(-c2nc(NCCc3c[nH]c4ccccc34)c3ncn(C(C)C)c3n2)c1` reads 39.6 µM

The measured TGI associated with `Fc1ccc(Nc2ncc(-c3cc(F)c(Cl)cc3Cl)s2)cc1Cl` reads > 100 µM

The measured TGI associated with COc1ccc(N=C(CS(=O)c2ccc(C)cc2)C(F)(F)F)cc1 (configuration not stated) reads > 100 µM

The measured TGI associated with CC1(C)CCCC2CC2CCC(C)(C)C1=O (configuration not stated) reads > 100 µM

The measured TGI associated with `Fc1ccc(Oc2nc3ccccc3nc2-c2ccccc2)cc1` reads > 100 µM

The measured TGI associated with `Cc1n[nH]c(=O)n1Nc1ccccc1` reads > 100 µM

The measured TGI associated with `O=c1ccn(Cc2ccccc2CCl)c(=O)[nH]1` reads > 100 µM

The measured TGI associated with `CCC(CC)c1cc(N[C@H]2CC[C@H](N)C2)n2nccc2n1` reads 22.8 µM

The measured TGI associated with COC(=O)C(=O)C(C#N)c1cccc(Cl)c1 (configuration not stated) reads > 100 µM

The measured TGI associated with `COc1ccc(C(OC(=O)[C@H](O[Si](C)(C)C(C)(C)C)[C@@H](NC(=O)c2ccccc2)c2ccccc2)c2ccc(OC)cc2)cc1` reads > 100 µM

The measured TGI associated with COc1cccc(C2c3cc4c(cc3OC(NNC(N)=O)C2C)OCO4)c1O (configuration not stated) reads > 100 µM

The measured TGI associated with OCC(O)C(O)C(O)C(O)CNCCO/N=C1/C(c2c(O)[nH]c3ccccc23)=Nc2ccccc21 (configuration not stated) reads > 50 µM

The measured TGI associated with `Cc1cccc2c(N)c3cccc(C(=O)NCC[N+](C)(C)Cc4ccc(S(C)(=O)=O)cc4)c3nc12` reads > 100 µM

The measured TGI associated with `O=C1C=CC(=O)c2c(O)c(NCCO)c(Cl)c(O)c21` reads 1.49 µM

The measured TGI associated with `Cc1cc(O[C@@H]2O[C@@H](C)[C@H](O)[C@@H](O)[C@H]2O)c2c3c(c(O[C@@H]4O[C@@H](C)[C@H](O)[C@@H](O)[C@H]4O)cc2c1)C(=O)c1c(O)cccc1C3=O` reads > 30 µM

The measured TGI associated with COC(=O)CC1C2(C)C3=C(C)C(c4ccoc4)CC3OC2C2OC(=O)C3(C)C=CC(=O)C1(C)C23 (configuration not stated) reads 10.1 µM

The measured TGI associated with `CCOC(=O)NC(Nc1ccc(S(=O)(=O)Nc2ccc(OC)nn2)cc1)(C(F)(F)F)C(F)(F)F` reads > 100 µM

The measured TGI associated with `O=C1c2cccc([N+](=O)[O-])c2C(=O)c2nccnc21` reads 2.8 µM

The measured TGI associated with `O=C(NCCCl)NCCN1c2nc3ccccc3cc2Sc2cc3ccccc3nc21` reads > 23.4 µM

The measured TGI associated with CC12CCCC(C#N)(C1)OC2=O (configuration not stated) reads > 100 µM

The measured TGI associated with O=C(O)C1CC(C2CCCCN2)CN2CCCCC12 (configuration not stated) reads > 100 µM

The measured TGI associated with O=C(CC(=O)N1N=C(n2ccc3ccccc32)CC1c1ccccc1)Nc1ccc(Cl)cc1 (configuration not stated) reads > 100 µM

The measured TGI associated with Cc1nn(C(=O)c2ccc(Cl)cc2)c2c1C(c1ccccc1O)SC(N)=N2 (configuration not stated) reads > 10 µM

The measured TGI associated with `Cc1ccccc1C=NC12CC3CC(CC(C3)C1)C2` reads > 100 µM

The measured TGI associated with CC(=O)Nc1ncc2c(n1)-c1ccccc1OC2c1ccccc1 (configuration not stated) reads 85.5 µM

The measured TGI associated with Cc1ccc(N=NN(C)C(C)C(O)Cc2ccccc2)cc1 (configuration not stated) reads > 100 µM

The measured TGI associated with `CN1C(=O)N/C(=C\c2ccc(S(=O)(=O)N/N=C/c3ccccc3)cc2)C1=O` reads > 100 µM

The measured TGI associated with `O=S(=O)(O)c1ccc(Nc2ccnc3ccccc23)cc1` reads > 100 µM

The measured TGI associated with Cc1ccc(C(=O)C(c2nc3n(c2O)C(=N)N=N3)c2nc3n(c2O)C(=N)N=N3)cc1 (configuration not stated) reads > 100 µM

The measured TGI associated with CC1(c2nc3ccccc3[nH]2)CCC(C#N)C(C)(C)O1 (configuration not stated) reads > 100 µM

The measured TGI associated with `CC[O-].CC[O-].COc1ccc(C(=O)[CH-]C(C)=O)cc1OC.COc1ccc(C(=O)[CH-]C(C)=O)cc1OC.[Ti+4]` reads > 100 µM

The measured TGI associated with `O=S(=O)(Nc1nccs1)c1ccc([As](=O)(O)O)cc1` reads > 100 µM

The measured TGI associated with Cc1cc2nc3c(=O)[nH]c(=O)nc-3n(CC(O)C(O)C(O)CO)c2cc1N (configuration not stated) reads > 100 µM

The measured TGI associated with `O=C(Nc1ccccc1)n1cc(-c2ccccn2)c(N2CCOCC2)n1` reads > 100 µM

The measured TGI associated with `CCOC(=O)Nc1ccc2nc(N3CCCCCC3)sc2c1` reads > 100 µM

The measured TGI associated with `CN(C)CCCOc1ccc(/C=C2/CCC/C(=C/c3ccc(OCCCN(C)C)cc3)C2=O)cc1` reads 7.1 µM

The measured TGI associated with `CN(C)c1ccc(/C=C(\C#N)c2ccccc2)cc1` reads > 100 µM

The measured TGI associated with `O=c1ccc2c(Cl)cccc2o1` reads > 100 µM

The measured TGI associated with `COC(=O)CNC(=O)CNC(=O)CSc1nnc(COc2ccc(Cl)cc2)n1-c1ccccc1` reads > 100 µM

The measured TGI associated with CCC1(OC(=O)CNC)C(=O)OCc2c1cc1n(c2=O)Cc2cc3ccccc3nc2-1 (configuration not stated) reads 0.493 µM

The measured TGI associated with `O=[N+]([O-])c1ccc(NNN=Nc2ccc(-c3nc4ccccc4[nH]3)cc2)c([N+](=O)[O-])c1` reads > 100 µM

The measured TGI associated with `O=c1c2cccc(F)c2sc2c(NCCCNCCO)nc3ccccc3c12` reads 3.64 µM
